OD450 overview
Target: T1, human MSLN-R1-his protein (human, UniProt Q13421 296-390)
T1 construct: Region 1 of human mesothelin, made in HEK293E cells, His-tagged; also called human MSLN-R1 protein; hMSLN-R1-his; not shown: His tag
T1 chain: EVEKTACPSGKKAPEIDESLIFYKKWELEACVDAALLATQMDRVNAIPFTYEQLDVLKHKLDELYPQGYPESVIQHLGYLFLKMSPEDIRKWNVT
Assay: ELISA on coated MSLN-R1; antibody 0.0001 nM
Express the result in OD450 but write the number alone.

These recorded examples may help you get a feel for the data.
{"columns": ["BINDER", "UNIT_STRING", "ENDPOINT_VALUE"],
 "data": [
  ["S009-F8-15.19 (antibody, human IgG1, kappa, V domains shown) VH: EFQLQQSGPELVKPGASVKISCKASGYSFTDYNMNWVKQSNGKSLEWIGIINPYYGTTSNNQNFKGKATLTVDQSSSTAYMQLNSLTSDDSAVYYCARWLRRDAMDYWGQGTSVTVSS VL: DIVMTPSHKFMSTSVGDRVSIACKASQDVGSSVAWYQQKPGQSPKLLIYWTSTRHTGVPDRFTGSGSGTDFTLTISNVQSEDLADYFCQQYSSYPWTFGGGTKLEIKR", "OD450", 0.04],
  ["S009-F8-27.1 (antibody, human IgG1, kappa, V domains shown) VH: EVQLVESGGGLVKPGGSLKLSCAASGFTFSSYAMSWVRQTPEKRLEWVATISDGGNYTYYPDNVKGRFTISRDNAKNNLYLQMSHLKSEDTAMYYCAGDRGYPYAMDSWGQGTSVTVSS VL: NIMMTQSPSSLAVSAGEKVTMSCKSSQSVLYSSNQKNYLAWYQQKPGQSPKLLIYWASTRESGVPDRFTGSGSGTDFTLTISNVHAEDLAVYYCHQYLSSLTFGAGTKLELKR", "OD450", 0.04],
  ["S009-F8-19.21 (antibody, human IgG1, kappa, V domains shown) VH: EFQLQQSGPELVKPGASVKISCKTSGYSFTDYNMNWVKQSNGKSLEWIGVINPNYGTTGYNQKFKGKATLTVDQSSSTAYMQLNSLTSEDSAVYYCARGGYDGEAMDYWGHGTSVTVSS VL: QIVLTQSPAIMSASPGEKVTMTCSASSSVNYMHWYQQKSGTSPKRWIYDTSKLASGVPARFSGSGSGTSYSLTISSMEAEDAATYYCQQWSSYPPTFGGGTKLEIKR", "OD450", 0.06],
  ["S009-F8-33.12 (antibody, human IgG1, kappa, V domains shown) VH: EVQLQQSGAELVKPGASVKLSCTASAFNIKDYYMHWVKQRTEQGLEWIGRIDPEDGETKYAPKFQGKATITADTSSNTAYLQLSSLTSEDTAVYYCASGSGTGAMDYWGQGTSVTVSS VL: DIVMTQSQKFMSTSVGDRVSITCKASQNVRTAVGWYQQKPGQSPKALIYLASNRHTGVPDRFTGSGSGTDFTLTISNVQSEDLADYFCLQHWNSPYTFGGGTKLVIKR", "OD450", 0.05]
]}

Challenge: Could you please provide reported OD450 for S009-F8-29.1 (antibody, human IgG1, kappa, V domains shown) VH: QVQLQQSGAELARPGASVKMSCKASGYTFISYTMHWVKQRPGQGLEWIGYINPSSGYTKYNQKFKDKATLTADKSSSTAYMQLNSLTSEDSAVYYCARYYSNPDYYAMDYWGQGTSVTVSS VL: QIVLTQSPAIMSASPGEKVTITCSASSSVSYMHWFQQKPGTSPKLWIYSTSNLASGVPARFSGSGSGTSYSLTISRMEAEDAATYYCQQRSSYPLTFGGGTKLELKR ? Thanks!
Response given: 0.04

Challenge: Could you please provide reported OD450 for S009-F8-28.23 (antibody, human IgG1, kappa, V domains shown) VH: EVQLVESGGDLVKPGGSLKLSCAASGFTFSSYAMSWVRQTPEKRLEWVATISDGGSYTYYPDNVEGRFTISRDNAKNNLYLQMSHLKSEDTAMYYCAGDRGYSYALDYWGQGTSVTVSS VL: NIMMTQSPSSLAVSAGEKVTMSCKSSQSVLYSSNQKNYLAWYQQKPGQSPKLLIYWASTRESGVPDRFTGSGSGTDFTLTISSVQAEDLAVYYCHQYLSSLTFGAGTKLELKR ? Thanks!
Response given: 0.04

Challenge: Could you please provide reported OD450 for S009-F8-18.9 (antibody, human IgG1, kappa, V domains shown) VH: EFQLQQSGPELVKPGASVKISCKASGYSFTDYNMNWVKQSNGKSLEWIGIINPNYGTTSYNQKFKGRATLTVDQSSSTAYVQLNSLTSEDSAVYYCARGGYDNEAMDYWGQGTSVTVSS VL: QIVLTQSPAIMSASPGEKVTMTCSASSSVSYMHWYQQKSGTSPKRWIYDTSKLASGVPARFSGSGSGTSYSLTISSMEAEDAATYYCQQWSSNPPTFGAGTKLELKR ? Thanks!
Response given: 0.06
